- ASSAY_DETAILS: physchem
- Description: Dissociation constant, pKa of the compound
Assign 1.0 whenever pKa does not fall below 10; assign 0.0 whenever it does.

{"MOLECULE": "CNCC(C)c1ccc(O)c(O)c1 (racemic)", "CATEGORY_LABEL": 1.0}
{"MOLECULE": "CN", "CATEGORY_LABEL": 1.0}
{"MOLECULE": "CNCC(OC)c1ccc(O)c(O)c1.Cl (racemic)", "CATEGORY_LABEL": 0.0}

Ask: Hello, I need to know if CNCCc1ccc(O)c(O)c1 [DEOXIEPINEPHRINE] has measured pKa not below 10. Thanks!
Result: 1.0

Ask: Hello, I need to know if NCC(O)c1ccc(O)c(O)c1 (racemic) has measured pKa not below 10. Thanks!
Result: 0.0

Ask: Hello, I need to know if CNC[C@H](O)c1ccc(O)c(O)c1 [EPINEPHRINE] has measured pKa not below 10. Thanks!
Result: 0.0

Ask: Hello, I need to know if CNC has measured pKa not below 10. Thanks!
Result: 1.0

* * *

- ASSAY_DETAILS: physchem
QUANTITY_MEASURED: pKa
Field format: numeric only.

{"MOLECULE": "NCCc1ccc(O)c(O)c1", "QUANTITY_MEASURED": "pKa", "READING": 10}
{"MOLECULE": "CC(N)Cc1ccc(O)c(O)c1 (racemic)", "QUANTITY_MEASURED": "pKa", "READING": 10}

Next molecule, please.
Ask: Query (molecule): CC(CN)c1ccc(O)c(O)c1.Cl (racemic) ; field requested: pKa
Result: 10
